- TARGET DESC: FGFR3 (UniProt P22607)
- Sequence (P22607 whole entry, looked up): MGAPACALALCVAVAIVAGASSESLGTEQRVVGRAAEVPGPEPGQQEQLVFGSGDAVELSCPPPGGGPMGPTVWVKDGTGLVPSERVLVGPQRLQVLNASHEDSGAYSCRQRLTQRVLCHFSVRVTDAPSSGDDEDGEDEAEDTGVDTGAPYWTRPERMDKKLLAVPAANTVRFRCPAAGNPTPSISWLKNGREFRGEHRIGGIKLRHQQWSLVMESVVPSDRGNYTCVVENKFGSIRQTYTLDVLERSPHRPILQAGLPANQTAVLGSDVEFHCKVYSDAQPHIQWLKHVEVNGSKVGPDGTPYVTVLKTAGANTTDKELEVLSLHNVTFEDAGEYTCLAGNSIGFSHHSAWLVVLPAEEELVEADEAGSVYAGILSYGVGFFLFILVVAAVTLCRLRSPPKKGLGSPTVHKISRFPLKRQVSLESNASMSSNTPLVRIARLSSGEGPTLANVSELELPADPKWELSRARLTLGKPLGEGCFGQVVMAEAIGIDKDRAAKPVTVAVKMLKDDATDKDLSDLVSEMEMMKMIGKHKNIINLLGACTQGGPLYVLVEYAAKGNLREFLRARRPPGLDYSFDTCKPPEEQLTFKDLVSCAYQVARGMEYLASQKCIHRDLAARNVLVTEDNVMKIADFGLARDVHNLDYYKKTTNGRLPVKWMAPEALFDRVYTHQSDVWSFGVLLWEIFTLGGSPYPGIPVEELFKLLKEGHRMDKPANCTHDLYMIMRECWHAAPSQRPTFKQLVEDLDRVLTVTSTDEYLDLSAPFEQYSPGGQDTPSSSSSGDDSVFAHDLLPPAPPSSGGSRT
- ASSAY EXPLANATION: phosphorylation enrichment, bacterial display (enrichment ratio); higher = better substrate or ligand; peptides without Tyr show the background;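 note: 11-residue human phosphosite peptides and single-mutation variants displayed on the E. coli surface, counted by deep sequencing, each peptide's frequency after selection divided by its frequency in the unselected input library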;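 note: frequency after pTyr selection over input frequency; kinase dosed for 20-30% of maximal phosphorylation in three min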
MEASUREMENT TYPE: phosphorylation enrichment

Give recorded phosphorylation enrichment. NMRSTYAKLAA [SEC22B_Y193_H190R]
0.403

Determine its reported phosphorylation enrichment: LASLIYNFVLF [AQP6_Y231]
3.34

Identify measured phosphorylation enrichment corresponding to KLSCSYSHWSA [C4BPA_Y470]
0.91

Kindly indicate its recorded phosphorylation enrichment. Item: GEAEQYVGGGG [FAT4_Y4980]
0.687

Supply reported phosphorylation enrichment belonging to this sequence: MIHSAYALGGL [CPS1_Y590_R587H]
0.471

Report measured phosphorylation enrichment; entry is ATGLIYIGSHD [AASDH_Y870_T865A]
0.684

Given TVQVAYYTVMM [SPATA17_Y83_M86V] , respond with its phosphorylation enrichment.
4.63

Tell me its phosphorylation enrichment given VTRAKYFIRDE [GNAS_Y339] as the entry.
0.432

Using the record for CQLENYCNGGG [INS_Y108_Y103C] , state its measured phosphorylation enrichment.
0.664

Specify reported phosphorylation enrichment for the sequence shown: DASAVYLRDFQ [PLCG2_Y242_H244R]
0.58

Look up and state reported phosphorylation enrichment for NGPDVYVLPVT [AATK_Y93_L97V]
0.751

Answer with the recorded phosphorylation enrichment for the sequence listed here: KPGLIYNKVNP [SPRED3_Y72_V71I]
0.429

Name the recorded phosphorylation enrichment of the item RYVTRHIYNRE [HLA-DQB1_Y62_Y62H] in your answer.
0.525

Tell me its phosphorylation enrichment given KLPDAYERFIL [G6PD_Y437_L440F] as the entry.
0.661

----------
- TARGET DESC: FGFR3 (UniProt P22607)
- ASSAY EXPLANATION: phosphorylation enrichment, bacterial display (enrichment ratio); higher = better substrate or ligand; peptides without Tyr show the background
Threshold rule: phosphorylation enrichment greater than or equal to 0.6 is true (1); below that, false (0).

hey, is phosphorylation enrichment for this one >= 0.6? "ANVKWYRNGRE"
false (0)

Exam item: decide whether the reported phosphorylation enrichment for GLVFLYMEKNQ [PRELP_Y156] is at least 0.6.
true (1)

Determine whether measured phosphorylation enrichment meets or exceeds 0.6 for DLVSEYQQFQD [TUBB3_Y422_YF]
true (1)

Identify whether the reported phosphorylation enrichment of the following sequence is 0.6 or greater: HGQVNYEEFVQ [CALM2_Y139_D134H]
true (1)

Is reported phosphorylation enrichment greater than or equal to 0.6 here: IRFSDYVEVAD [PHACTR1_Y525]
true (1)

In plain terms: is recorded phosphorylation enrichment at least 0.6 for EFLKNYFTDKA [DSG2_Y775_R773K] ?
false (0)

State whether the measured phosphorylation enrichment reaches 0.6, counting equality as reaching it, for DKEKWYPLGNS [PIK3C2G_Y1438]
false (0)

phosphorylation enrichment >= 0.6 for LPQDGYRIVQH [PTPRT_Y1329_R1324L] ?
false (0)

Is the recorded value of phosphorylation enrichment equal to or greater than 0.6 for this sequence? NDPMEYAKQHG [ASS1_Y163_L160P]
false (0)

State whether the measured phosphorylation enrichment reaches 0.6, counting equality as reaching it, for FGMQLYQNFMH [GRB14_Y347_YF]
true (1)

Identify whether the reported phosphorylation enrichment of the following sequence is 0.6 or greater: QAPPIYLDVLG [NTRK1_Y791_V790I]
true (1)

Hello, the source for this data is the supplement of paper PMC10065799, in case you need it.
